Entries annotated with measured yeast fitness
B1: tRNA (parent)
chain: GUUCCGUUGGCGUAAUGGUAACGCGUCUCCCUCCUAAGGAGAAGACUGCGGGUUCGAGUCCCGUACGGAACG

Variants of: B1
Experiment: yeast fitness relative to wild type (ratio to wild type); higher = fitter; tRNA-Arg(CCU), competitive growth, 37 C, YPD
This sample holds only a part of the variants without activity.

{"biopolymer-sequence": "GUUCCGUUGGCGUAAUGGUAACGCGUCCCCCUCCUAAGAUGGAGACUGCGGGUUCGAGUCCCGUACGGAACG [U28C G39A A40U A42G]", "yeast fitness": "≤ 0.5"}
{"biopolymer-sequence": "GGUCCGUUGGCGUAAUGGUAACGCGUCUCCCUACUAAGCAGAAGACUGCGGGUUCGAGUCCCGUACGGAACG [U2G C33A G39C]", "yeast fitness": "≤ 0.5"}
{"biopolymer-sequence": "GUUCAGUUGGCGUAAUGGUAACGCGUCUCCCUCCUAAGGAGAAGACUGCAGGUUCGAGUCCCGUACGCAACG [C5A G50A G68C]", "yeast fitness": "≤ 0.5"}
{"biopolymer-sequence": "GUUCCGUUGGCGUAAUGGUAACGCGUCUCCCUCCUAAGGUGAAGACUGGGGGUUCCAGUCCCGUACGGAACG [A40U C49G G56C]", "yeast fitness": "≤ 0.5"}
{"biopolymer-sequence": "GUUCUGUUGGCGUAAUGGUAACGUGUCUCCCUCCUGAGGAGAAGAACGCGGGUUAGAGUCCCGUACAGAACG [C5U C24U A36G C46A U47C C55A G67A]", "yeast fitness": "≤ 0.5"}
{"biopolymer-sequence": "GUUGCGUUAGCGUAAUGGUAAUGCGUCUCCCUCCUAAGGAGAAGAGUGCGGGUUCCAGUCCCGUACGGAACG [C4G G9A C22U C46G G56C]", "yeast fitness": "≤ 0.5"}
{"biopolymer-sequence": "GUUCCGUUGGCGUAAUGGUAACGCGUCUCCCUCCUAAGGACAAGAGUGCGGGUUCGAGCUCCGUACGGAACG [G41C C46G U59C C60U]", "yeast fitness": "≤ 0.5"}
{"biopolymer-sequence": "GUUCCGUUGGCGUAAUGGUAACGCGUGUCCCUCCUAAGGAGACGACUGCGGGUUCGAGUGCCGUACGGAACG [C27G A43C C60G]", "yeast fitness": "≤ 0.5"}
{"biopolymer-sequence": "GUUUCGUUGGCGUAAUGGUAACGCGUCUCCCUCCUAAGGAGAAGAGUGCGGGUUCGAGUCCCCUAAGGAACG [C4U C46G G63C C66A]", "yeast fitness": "≤ 0.5"}
{"biopolymer-sequence": "GUUCCGUUGGCGUCUUGGUAACGCGUCUCCCUCGUAAGGAGAAGACUGCAGGUUCGAGUCCCGUACGGAACG [A14C A15U C34G G50A]", "yeast fitness": "≤ 0.5"}
{"biopolymer-sequence": "GUUCCGCUGGCGUAAUGGUAACGCGUCUCCCUCCUAGGGAGAAGACUGAGGGUUCGAGUCCCGUACGGAACG [U7C A37G C49A]", "yeast fitness": "≤ 0.5"}
{"biopolymer-sequence": "GUUCCGUUGGUGUAAUGGUAGCGCGUCUGCCUCCUAAGGAGAAGACUGCGGGUUCGAGUCGCGUACGGAACG [C11U A21G C29G C61G]", "yeast fitness": "≤ 0.5"}
{"biopolymer-sequence": "GUUCCGUUGGCGUAAUGGUUACGCGUCUCCCUCCUAAGGAGAGGACUGCGAGUUCGAGUCCCGUACGGCACG [A20U A43G G51A A69C]", "yeast fitness": "≤ 0.5"}
{"biopolymer-sequence": "GUUCUGUUGGCGUAACGGUAACGCGUCUCCCUCCUAAGGGGAGGACUGCGGGUUCGAGUCCCCUACGGGACG [C5U U16C A40G A43G G63C A69G]", "yeast fitness": "≤ 0.5"}
{"biopolymer-sequence": "GUUCCGUUGGCGUACUGGUAACGCGUCUGGCUCCUAAGGAGAAGACCGCGGGUUCGAGUCCCGUACGGAACG [A15C C29G C30G U47C]", "yeast fitness": "≤ 0.5"}
{"biopolymer-sequence": "GUUCCGUUGGCGCAAUAGUAAAGCAUCUCCCUCCUAAGGAGAAGACUGCGGGUUCGAGUCCCGUACGGAACG [U13C G17A C22A G25A]", "yeast fitness": "≤ 0.5"}
{"biopolymer-sequence": "GUUCCGUUGGCGUAAUGGUAACGCGUCUGCCCCCUAAGGUGAAGACUGCGGGUUCGAGUCUCGUAUGGAACG [C29G U32C A40U C61U C66U]", "yeast fitness": "≤ 0.5"}
{"biopolymer-sequence": "GUUCCGUUGGCGUAAUGGUCACGCGUCUCACUUUUAAGGAGAAGACUGAGGGUUCGAGUCCGGUACGGAACG [A20C C30A C33U C34U C49A C62G]", "yeast fitness": "≤ 0.5"}
{"biopolymer-sequence": "GUUCCGUUGGCGUAAUGGUAAGGCGUGUCCGUCCUAAGGAGAAGACUGAGGAUUCGAGUCCCGUACGGAACG [C22G C27G C31G C49A G52A]", "yeast fitness": "≤ 0.5"}
{"biopolymer-sequence": "GAUCCGUUAGCGAAAUGGUAACGAGUCUCCCUCCUAAGGAGGAGACUGCGGGUUUGAGUCCCGUACGGACCG [U2A G9A U13A C24A A42G C55U A70C]", "yeast fitness": "≤ 0.5"}
{"biopolymer-sequence": "GUUGCGUUGGCGUAAUGGUAACGCGUCUCCCUCCUAUGGAGAAGACUGCGGGUUCGAGUUCCGUACGGAACG [C4G A37U C60U]", "yeast fitness": "≤ 0.5"}
{"biopolymer-sequence": "GUUCCGUUGACGUUAUGGUAACGCGUCUCUCUCAUAAGGAGAAGACUGCGGGUUCGAGUCCCGUACGGAACG [G10A A14U C30U C34A]", "yeast fitness": "≤ 0.5"}
{"biopolymer-sequence": "GUUCCGUUGGCGUAAUGGUAACGCGUCUCCAUCCUAAGGAGAAGACUGCGGGUUCGAGUCCCGGACGGCACG [C31A U64G A69C]", "yeast fitness": "≤ 0.5"}
{"biopolymer-sequence": "GUUCCGUUGGCGUAAUGGUAACGCGUCUCCCUCCUAAGGAGAAGACUGCGGGUUGGAGUCCCGUCCAGAACG [C55G A65C G67A]", "yeast fitness": "≤ 0.5"}
{"biopolymer-sequence": "GUUCCGUUGGCGUAAUGGUAAAACGUCUCCCUUCUAAGGAGUAGACUGCGGGUUCGAGUCCCGUACGGUACG [C22A G23A C33U A42U A69U]", "yeast fitness": "≤ 0.5"}
{"biopolymer-sequence": "GUUCCGUUGGCGUAAUGGUAACGCGUCUUCCUCCUACGGAAAAGACUGCGGGUUCGAGUCCCGUACGGACCG [C29U A37C G41A A70C]", "yeast fitness": "≤ 0.5"}
{"biopolymer-sequence": "GUUGCGUUGGCUUCAUGGUAACGCGUCUCCCUCCUAAGGAGAAGACUGUGGGUUCGAGUCCCGUACGGAACG [C4G G12U A14C C49U]", "yeast fitness": "≤ 0.5"}
{"biopolymer-sequence": "GUUCCGUUGGCGUAAUGGUAACGGGUCUGCCUCCUAAGGAGAAGACUACGGGUUCGAGUCCCGUACGGAACG [C24G C29G G48A]", "yeast fitness": "≤ 0.5"}
{"biopolymer-sequence": "GUUCCGUUGGCGCAAUGGUAACGCGUCUCCCUCCUAAGGAGAGGACUGCGGGAUCGAGUCCCGUACGGAACG [U13C A43G U53A]", "yeast fitness": "≤ 0.5"}
{"biopolymer-sequence": "GUUCCGUUGGCGUAAUGGUAACGCGUCUCCAUCCUAAGGAGAAGACUGAGGGUUCGAGUUCCGUACGGAACG [C31A C49A C60U]", "yeast fitness": "≤ 0.5"}
{"biopolymer-sequence": "GUUCCGUUGGCGUAAUGGUAACGCGUCUCCCUCCUCAGGAGAAGACACCGGGUUCGAGUCCCGUACGGAACG [A36C U47A G48C]", "yeast fitness": "≤ 0.5"}
{"biopolymer-sequence": "GUUCCGUUGGCGUAAUGGUAACGCGUCUGCCUCCUAAGGAGAAGAAUGCGGGUUCGGGCCCCGUACGGAACG [C29G C46A A57G U59C]", "yeast fitness": "≤ 0.5"}
{"biopolymer-sequence": "GUUCCCUUGGCGUAUUGGUAACGCGUCUCCCUCCUAAGGAGAAGACUGCGGGUUCGAGUGCCGUAUGGAACG [G6C A15U C60G C66U]", "yeast fitness": "≤ 0.5"}
{"biopolymer-sequence": "GUUUCGUUGGGGUAAUGGUAACGCGUCUACCUCCUAAGGAGAAGACUGCGGGUACGAGGCCCGUACGGAACG [C4U C11G C29A U54A U59G]", "yeast fitness": "≤ 0.5"}
{"biopolymer-sequence": "GUUACGUUGGCGAAAUGAUAACGCGUCUCCCUCCUAAGGAGAAGACUGCGGAUUGGAGUCCCGUACGGUACG [C4A U13A G18A G52A C55G A69U]", "yeast fitness": "≤ 0.5"}
{"biopolymer-sequence": "GUUCCGUUGGUGUAAUGGUAACGCGUCUCCCUCCUAAGGAGAAGACUGCGGGUUUGAGCCCCGUCCGGAACG [C11U C55U U59C A65C]", "yeast fitness": "≤ 0.5"}
{"biopolymer-sequence": "GCUCCGUUGGCGUAGUGGUAACGCGUCUCCCUCCUAACGAGAAGACUGCGGGUUCGAGUCCCGAACGACACG [U2C A15G G38C U64A G68A A69C]", "yeast fitness": "≤ 0.5"}
{"biopolymer-sequence": "GUUCCAUUGGCGUAGUGGUAAAGCGUCUCCCUCCUAAGGAGAAGACUGCGGGUUCGAGUCCCGUACGGAACG [G6A A15G C22A]", "yeast fitness": "≤ 0.5"}
{"biopolymer-sequence": "GUUUCGUUGGCGUAAUGGUAACGUGUAUCCCUCCUAAGGAGAAGACUGCGGGUUCGAGUGCCGUACCGAACG [C4U C24U C27A C60G G67C]", "yeast fitness": "≤ 0.5"}
{"biopolymer-sequence": "GUUCCGUUGAGGUAAUGGUGACGCGUCUCCCUCCUAAGGAGAAGACUGCGGGUUGGAGUCCCGUACGGAACG [G10A C11G A20G C55G]", "yeast fitness": "≤ 0.5"}
{"biopolymer-sequence": "GUUCCGUUGGCGUAAUGGUAAGGCGUCUGCCUCCUAAGGACAAGACUGCGGGUUCGAGUCCCGUACGGAACG [C22G C29G G41C]", "yeast fitness": "≤ 0.5"}
{"biopolymer-sequence": "GUUCCGUUGGCGUAAUGGUAACGCGUCUCCCUCCUGAGGAGAAGACUGCGGGUUCGAGUCCCGGAAGGAACG [A36G U64G C66A]", "yeast fitness": "≤ 0.5"}
{"biopolymer-sequence": "GUUGCGUUGGGGUAAUGGUAACGCGUGUCCCUCCUAAGGAGAAGACUGCGGGUUCGGGGCCCGUACGGAACG [C4G C11G C27G A57G U59G]", "yeast fitness": "≤ 0.5"}
{"biopolymer-sequence": "GUUCCGUUGGCGUAAUGGUAAGGCGUCUCCCUCCUAAGGAAACGACUGCGCGUUCGAGUCCCGUAUUGAACG [C22G G41A A43C G51C C66U G67U]", "yeast fitness": "≤ 0.5"}
{"biopolymer-sequence": "GUUCCGUUGGGGUAAUGGUAUCGCGUCUCCCUCCUAAGGAGUAGACUGCGGGUUCGAGUCCCGUACGGAACG [C11G A21U A42U]", "yeast fitness": "≤ 0.5"}
{"biopolymer-sequence": "GUUCAGUUGGCGUAGUGGUAACGUGUCUUGCUCCGAAGGAGAAGACUGCGGGUUCGAGUCCCGUACGGAACG [C5A A15G C24U C29U C30G U35G]", "yeast fitness": "≤ 0.5"}
{"biopolymer-sequence": "GUUCCGUUGGCGUAAUGGAAACGCGUCUCCCUCCUAAGGAGAUGCCUGCGGGUUCGAGUCCCGUACCGAACG [U19A A43U A45C G67C]", "yeast fitness": "≤ 0.5"}
{"biopolymer-sequence": "GUUGCGUUGGGGUAAUGGUAACGCGUCUCCCUCCUAAGGAGAAGACUGCGGGUUUGAGUCACGUACAGAACG [C4G C11G C55U C61A G67A]", "yeast fitness": "≤ 0.5"}
{"biopolymer-sequence": "GUUCCGUUGGCGUAAUGAUAACGCGUCUCCCUACUAAGGAGAAAACUGCGGGUUCGAGUCCCGCACGGAACG [G18A C33A G44A U64C]", "yeast fitness": "≤ 0.5"}
{"biopolymer-sequence": "GUUGCGUUGGCGUCAUGGUAACGCGUCUCCCUCCUAAGGAGAAGACUGCCGGUUCCAGUCCCGUACGGAACG [C4G A14C G50C G56C]", "yeast fitness": "≤ 0.5"}
